Molecular target: CD16B-NA2 (FcgRIIIb-NA2) (Homo sapiens, UniProt O75015)
Sequence (O75015 17-200 limits assumed): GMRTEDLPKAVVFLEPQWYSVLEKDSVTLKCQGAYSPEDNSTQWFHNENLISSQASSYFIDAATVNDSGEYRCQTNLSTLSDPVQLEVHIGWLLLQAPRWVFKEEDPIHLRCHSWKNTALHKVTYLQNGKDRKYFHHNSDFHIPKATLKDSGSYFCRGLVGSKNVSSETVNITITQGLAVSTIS
Experiment: SPR, antibody binding to anti-his Fab captured FcgR-his (% Rmax)
Conditions: 1 μM antibody
Description: The binding of antibodies to Fc gamma receptors (FcγRs or FcgRs) was studied using biosensor technologies including Biacore surface plasmon resonance (SPR) and Fortebio Biolayer Interferometry (BLI). […] Various his-tagged FcgRs (7 ug/ml) were captured via the C-terminal his-tag using a contact time of 30 s at 10 ul/min, and the binding of 1.0 μM antibody was evaluated in a running buffer of 10 mM NaPO4, 130 mM NaCl, 0.05% p20 (PBS-T) pH 7.1. […]
measured.parameter: % Rmax hCD16B-NA2

Reference set (6 entries):
[
  {
    "molecule": "mAb4-IgG2.3 (protein, left off: another chain or arm of the molecule) constant: ASTKGPSVFPLAPCSRSTSESTAALGCLVKDYFPEPVTVSWNSGALTSGVHTFPAVLQSSGLYSLSSVVTVPSSNFGTQTYTCNVDHKPSNTKVDKTVERKSCVECPPCPAPPVAGPSVFLFPPKPKDTLMISRTPEVTCVVVDVSHEDPEVQFNWYVDGVEVHNAKTKPREEQFNSTFRVVSVLTVVHQDWLNGKEYKCKVSNKGLPAPIEKTISKTKGQPREPQVYTLPPSREEMTKNQVSLTCLVKGFYPSDIAVEWESNGQPENNYKTTPPMLDSDGSFFLYSKLTVDKSRWQQGNVFSCSVMHEALHNHYTQKSLSLSPGK",
    "measured.parameter": "% Rmax hCD16B-NA2",
    "observed.measurement": "0%"
  },
  {
    "molecule": "mAb5-IgG2.5 (protein, left off: another chain or arm of the molecule) constant: ASTKGPSVFPLAPSSRSTSESTAALGCLVKDYFPEPVTVSWNSGALTSGVHTFPAVLQSSGLYSLSSVVTVPSSNFGTQTYTCNVDHKPSNTKVDKTVERKCCVECPPCPAPPVAGPSVFLFPPKPKDTLMISRTPEVTCVVVDVSHEDPEVQFNWYVDGVEVHNAKTKPREEQFNSTFRVVSVLTVVHQDWLNGKEYKCKVSNKGLPAPIEKTISKTKGQPREPQVYTLPPSREEMTKNQVSLTCLVKGFYPSDIAVEWESNGQPENNYKTTPPMLDSDGSFFLYSKLTVDKSRWQQGNVFSCSVMHEALHNHYTQKSLSLSPGK",
    "measured.parameter": "% Rmax hCD16B-NA2",
    "observed.measurement": "1%"
  },
  {
    "molecule": "mAb10-IgG2.3G1-AY-V27 (protein, left off: another chain or arm of the molecule) constant: ASTKGPSVFPLAPCSRSTSESTAALGCLVKDYFPEPVTVSWNSGALTSGVHTFPAVLQSSGLYSLSSVVTVPSSNFGTQTYTCNVDHKPSNTKVDKTVERKSCVECPPCPAPELLGGPSVFLFPPKPKDTLMISRTPEVTCVVVDVEHEDPEVKFNWYVDGVEVHNAKTKPREEQYNSTYRVVSVLTVLHQDWLNGKEYKCKVSNKALPAPIEKTISKAKGQPREPQVYTLPPSREEMTKNQVSLTCLVKGFYPSDIAVEWESNGQPENNYKTTPPVLDSDGSFFLYSKLTVDKSRWQQGNVFSCSVMHEALHNHYTQKSLSLSPGK",
    "measured.parameter": "% Rmax hCD16B-NA2",
    "observed.measurement": "3%"
  },
  {
    "molecule": "mAb7-IgG2.5 (protein, left off: another chain or arm of the molecule) constant: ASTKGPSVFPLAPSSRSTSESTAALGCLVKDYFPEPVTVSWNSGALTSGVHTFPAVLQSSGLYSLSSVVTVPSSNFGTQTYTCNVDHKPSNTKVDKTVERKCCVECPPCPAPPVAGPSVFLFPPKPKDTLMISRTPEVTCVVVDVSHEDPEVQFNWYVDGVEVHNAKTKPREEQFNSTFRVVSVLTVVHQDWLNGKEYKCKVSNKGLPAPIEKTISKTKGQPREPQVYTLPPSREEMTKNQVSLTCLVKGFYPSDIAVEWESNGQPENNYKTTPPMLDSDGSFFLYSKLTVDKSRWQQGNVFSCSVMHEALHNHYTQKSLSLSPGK",
    "measured.parameter": "% Rmax hCD16B-NA2",
    "observed.measurement": "0%"
  },
  {
    "molecule": "mAb7-IgG2.5G1-AY-V27 (protein, left off: another chain or arm of the molecule) constant: ASTKGPSVFPLAPSSRSTSESTAALGCLVKDYFPEPVTVSWNSGALTSGVHTFPAVLQSSGLYSLSSVVTVPSSNFGTQTYTCNVDHKPSNTKVDKTVERKCCVECPPCPAPELLGGPSVFLFPPKPKDTLMISRTPEVTCVVVDVEHEDPEVKFNWYVDGVEVHNAKTKPREEQYNSTYRVVSVLTVLHQDWLNGKEYKCKVSNKALPAPIEKTISKAKGQPREPQVYTLPPSREEMTKNQVSLTCLVKGFYPSDIAVEWESNGQPENNYKTTPPVLDSDGSFFLYSKLTVDKSRWQQGNVFSCSVMHEALHNHYTQKSLSLSPGK",
    "measured.parameter": "% Rmax hCD16B-NA2",
    "observed.measurement": "9%"
  },
  {
    "molecule": "mAb12-IgG2.5 (protein, left off: another chain or arm of the molecule) constant: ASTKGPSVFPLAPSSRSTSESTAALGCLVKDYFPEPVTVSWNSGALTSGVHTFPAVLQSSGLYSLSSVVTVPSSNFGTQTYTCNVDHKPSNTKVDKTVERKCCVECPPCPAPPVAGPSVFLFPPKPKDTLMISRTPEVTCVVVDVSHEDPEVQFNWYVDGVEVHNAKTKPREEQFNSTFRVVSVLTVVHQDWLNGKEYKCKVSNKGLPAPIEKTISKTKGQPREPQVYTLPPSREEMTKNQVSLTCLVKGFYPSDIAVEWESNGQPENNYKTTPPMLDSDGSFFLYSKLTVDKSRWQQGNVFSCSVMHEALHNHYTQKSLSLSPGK",
    "measured.parameter": "% Rmax hCD16B-NA2",
    "observed.measurement": "0%"
  }
]

Now for a further molecule.
Sample mAb13-IgG2.3 (protein, left off: another chain or arm of the molecule) constant: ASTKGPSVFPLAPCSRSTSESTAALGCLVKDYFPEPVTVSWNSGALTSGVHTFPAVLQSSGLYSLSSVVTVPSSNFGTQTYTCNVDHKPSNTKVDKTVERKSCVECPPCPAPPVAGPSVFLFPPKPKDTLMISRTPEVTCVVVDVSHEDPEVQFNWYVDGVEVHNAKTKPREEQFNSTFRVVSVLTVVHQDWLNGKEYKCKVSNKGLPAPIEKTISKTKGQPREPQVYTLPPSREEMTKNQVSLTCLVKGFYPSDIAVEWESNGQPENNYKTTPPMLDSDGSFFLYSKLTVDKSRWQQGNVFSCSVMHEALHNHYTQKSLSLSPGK — what was its % Rmax hCD16B-NA2?
0%
